Listing of recorded TGI by entry.
Tested on: HOP-92 NSCLC
assay text: NCI tumour cell line growth inhibition, 48 h

Reference set (2 entries):
compound	TGI
COCCn1cc(-c2csc(-c3c[nH]c4ccccc34)n2)c2cccnc21	> 100 µM
O=C1/C(=C/c2cccs2)N=C(c2ccccc2)N1c1nc2ccccc2s1	> 100 µM

query: Form field: reported TGI of COc1ccccc1NC(=O)CSC(N)=O
result: > 100 µM

query: Entry to check: COP(=O)(OC)C(NC(c1ccccc1)c1ccccc1)c1ccc2c(c1)OCO2 (stereo unspecified)
result: 26.3 µM

query: Entry to check: CC1Cc2c(cc(N)nc2Br)NC1=O (stereo unspecified)
result: > 100 µM

query: Entry to check: CSc1nc2c(c(=O)[nH]1)N=C1c3ccccc3C(=O)C1C(c1ccc(F)cc1)N2 (stereo unspecified)
result: 48.8 µM

query: Entry to check: COC(=O)C(CCS(=O)(=O)CC(=O)C(=O)Nc1cccc(C(C)=O)c1)C(=O)OC
result: > 100 µM

query: Entry to check: CCOc1ccc(N=Cc2cccc3cccnc23)cc1
result: > 100 µM

----------
Listing of recorded GI50 by entry.
System: SNB-19 CNS
assay text: NCI tumour cell line growth inhibition, 48 h

compound	quantity name	value measured
CCOP(=O)(OCC)C(NC(c1ccccc1)c1ccccc1)c1ccccc1 (stereo not drawn)	GI50	48.1 µM
O=S(=O)([O-])c1cccc2cccc(N=Cc3ccccc3[O-])c12.O=S(=O)([O-])c1cccc2cccc(N=Cc3ccccc3[O-])c12.[O]=[U]=[O]	GI50	45.6 µM

query: Form field: reported GI50 of O=c1cccc(C#CC#C[C@H]2O[C@@H]2CO)o1
result: 6.24 µM

----------
Tested on: OVCAR-5 ovarian
assay text: NCI tumour cell line growth inhibition, 48 h
quantity name: TGI

molecule	TGI
CC(=O)OC[C@H]1O[C@@H](n2ccc(=O)[nH]c2=O)[C@H](OC(C)=O)[C@@H]1OC(C)=O	> 100 µM

query: Form field: reported TGI of C=C1CN=C(Nc2ccc(F)cc2F)S1
result: > 100 µM

query: Entry to check: O=C1CCC(Cc2ccc(Cl)cc2Cl)C(=O)N1 (stereo not given)
result: > 100 µM

query: Entry to check: Nc1cc2ncnc(Nc3cccc(Br)c3)c2cn1
result: > 100 µM

query: Entry to check: CC(C)(C)C(=O)O[C@H]1C=C[C@@H](O)[C@@H]2[C@H]1[C@@H]1C=C[C@H]2C1
result: 6.42 µM

query: Entry to check: Cc1cn(C2CC(F)C(CO)O2)c(=O)[nH]c1=O (stereo not given)
result: > 100 µM

----------
Test system: HL-60(TB) leukemia
assay text: NCI tumour cell line growth inhibition, 48 h; in the data active = GI50 below about 0.43 µM; inactive = the rest
Select the matching outcome among active, inactive

Solved entries:
molecule	answer label
O=C(/C=C/c1cccnc1)NCCCCC1CCN(C(=O)c2ccccc2)CC1	inactive
O=c1cccc(C#CC#C[C@H]2O[C@@H]2CO)o1	inactive
OCc1cn(Cc2cccc(Cl)c2)c2ccccc12	inactive
CC[C@]1(O)CC2CN(CCc3c([nH]c4ccccc34)[C@@](C(=O)OC)(c3cc4c(cc3OC)N(C)[C@H]3[C@@](O)(C(=O)OC)[C@H](OC(C)=O)[C@]5(CC)C=CCN6CC[C@]43[C@@H]65)C2)C1 (stereo partly specified)	active
C(=N\Nc1ccccn1)/c1ccccn1	active
CSc1nc2c(c(=O)[nH]1)N=C1c3ccccc3C(=O)C1C(c1ccc(F)cc1)N2 (stereo unspecified)	inactive
CC(C)(C)N1CCC1C(N)=O (stereo unspecified)	inactive
Cc1ccc2c(c1)nc(C(=O)c1ccco1)c(C(F)(F)F)[n+]2[O-]	inactive

query: Give the logged outcome of this assay for the following molecule: COc1c(O)c2c(c3cc(C(=O)N4CCc5c4c(O)c(OC)c4[nH]c(C(=O)N6CC7CC78C6=CC(=O)c6[nH]cc(C)c68)cc54)[nH]c13)CCN2C(N)=O (stereo unspecified)
result: inactive

query: Entry to check: Cc1c(C#N)cccc1-c1cc(-c2cn(Cc3cccc(C(C)(C)O)n3)nn2)nc(N)n1
result: inactive

query: Entry to check: C=C1C(=O)O[C@H]2[C@H]1CC/C(COC(=O)NCc1cc3ccccc3[nH]1)=C\CC[C@@]1(C)O[C@@H]21
result: inactive

Data credit: PubChem BioAssay (NCI)
